These entries and their values trace back to BigSolDB 2.1.

conditions: in n-propanol, 303.15 K
Recorded endpoint: solubility (mole fraction)

[[record]]
molecule_smiles = "O=C(Nc1ccncc1)c1cc(C(=O)Nc2ccncc2)cc(C(=O)Nc2ccncc2)c1"
recorded_endpoint = "solubility (mole fraction)"
meas_value = 0.000255


====

details: in ethanol, 283.15 K
Recorded endpoint: solubility (mole fraction)

[[record]]
molecule_smiles = "O=C(Nc1ccncc1)c1cc(C(=O)Nc2ccncc2)cc(C(=O)Nc2ccncc2)c1"
meas_value = "4.73e-05"


====

conditions: in dichloromethane, 293.15 K
Recorded endpoint: solubility (mole fraction)

[[record]]
molecule_smiles = "O=C(Nc1ccncc1)c1cc(C(=O)Nc2ccncc2)cc(C(=O)Nc2ccncc2)c1"
meas_value = "5.41e-05"

